Source listed as patent US7033991.

# SUBJECT_OF_TEST: T1, PC1, P29120
# T1 chain: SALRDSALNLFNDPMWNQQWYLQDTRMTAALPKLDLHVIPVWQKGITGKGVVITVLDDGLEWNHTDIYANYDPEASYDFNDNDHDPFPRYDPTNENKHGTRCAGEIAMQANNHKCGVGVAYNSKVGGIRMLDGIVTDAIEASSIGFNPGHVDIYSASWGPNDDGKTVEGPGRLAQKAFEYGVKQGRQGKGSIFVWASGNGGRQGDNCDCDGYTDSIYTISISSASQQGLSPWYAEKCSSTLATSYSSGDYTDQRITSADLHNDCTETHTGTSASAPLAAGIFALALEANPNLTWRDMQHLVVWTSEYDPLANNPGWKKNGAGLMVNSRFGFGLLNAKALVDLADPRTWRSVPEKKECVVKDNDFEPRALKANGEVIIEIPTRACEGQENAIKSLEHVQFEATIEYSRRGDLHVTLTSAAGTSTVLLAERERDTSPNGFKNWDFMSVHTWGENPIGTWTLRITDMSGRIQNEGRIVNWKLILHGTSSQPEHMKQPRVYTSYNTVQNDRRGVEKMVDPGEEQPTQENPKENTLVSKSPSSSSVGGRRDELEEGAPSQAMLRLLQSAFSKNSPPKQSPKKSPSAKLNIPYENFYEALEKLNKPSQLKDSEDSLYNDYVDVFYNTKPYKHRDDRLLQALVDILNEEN
# EXPERIMENTAL_CONTEXT: modification not given
MEASUREMENT_KIND: pKi
Scale: negative log10 of molar concentration, which is what pKi denotes.

(Q) Requested read-out: pKi. Entry: RRRRRRRR [Octa-L-arginine]
(A) 5.29
